Recorded Deoxyribonucleoside kinase activity in crude extract of DT 40 cells for the following molecules
Test system: deoxyribonucleoside kinases in DT 40 chicken cell line crude extract
Assay: Deoxyribonucleoside kinase activity in crude extracts of DT 40 cells (DE-81 filter paper assay)
Assay type: biochemical
Details: substrate at 200 μM; triplicates, mean with standard deviation

Molecule	Measurement
Cc1cn([C@H]2C[C@H](O)[C@@H](CO)O2)c(=O)[nH]c1=O [dThd, thymidine]	0.1 ± 0.03 mU/mg
Nc1ccn([C@H]2C[C@H](O)[C@@H](CO)O2)c(=O)n1 [dCyd, deoxycytidine]	0.09 ± 0.01 mU/mg
Nc1ncnc2c1ncn2[C@H]1C[C@H](O)[C@@H](CO)O1 [dAdo, deoxyadenosine]	0.1 ± 0.01 mU/mg

Next molecule, please.
Give the reported Deoxyribonucleoside kinase activity in crude extract of DT 40 cells for Nc1nc2c(ncn2[C@H]2C[C@H](O)[C@@H](CO)O2)c(=O)[nH]1 [dGuo, deoxyguanosine] (system: deoxyribonucleoside kinases in DT 40 chicken cell line crude extract). 0.09 ± 0.00 mU/mg

----------
Tested on: GgdCK1
Test: Steady state kinetics of purified recombinant GgdCK1
Format: biochemical, Gallus gallus
Measured quantity: log10 of Km (log10 of the value in µM)
Give log10 of Km, with Km taken in µM.

Compound	log10 of Km
Nc1ccn([C@@H]2O[C@H](CO)[C@@H](O)C2(F)F)c(=O)n1	0.80
Nc1nc(Cl)nc2c1ncn2[C@H]1C[C@H](O)[C@@H](CO)O1	0.52
Nc1ccn([C@@H]2O[C@H](CO)[C@@H](O)[C@@H]2O)c(=O)n1 [araC, cytidine-arabinoside]	1.18
Nc1ccn([C@H]2C[C@H](O)[C@@H](CO)O2)c(=O)n1	0.68

// moving on: another record for log10 of Km
Given the compound Nc1nc2c(ncn2[C@H]2C[C@H](O)[C@@H](CO)O2)c(=O)[nH]1 , what is its reported log10 of Km? 1.79

----------
Tested on: deoxyribonucleoside kinases in MCF-7 cell crude extract
Test: Deoxyribonucleoside kinase activity in crude extracts of MCF-7 cells
Assay type: biochemical, human
Conditions: substrate at 200 μM; triplicates, mean with standard deviation
Measured quantity: Deoxyribonucleoside kinase activity in crude extract of MCF-7 cells (mU/mg)
Could you give me the number in mU/mg? Just the number is fine.

For orientation, consider the following solved cases.
Cc1cn([C@H]2C[C@H](O)[C@@H](CO)O2)c(=O)[nH]c1=O 0.07
Nc1ncnc2c1ncn2[C@H]1C[C@H](O)[C@@H](CO)O1 0.05
Nc1nc2c(ncn2[C@H]2C[C@H](O)[C@@H](CO)O2)c(=O)[nH]1 0.01

Please tell me: Deoxyribonucleoside kinase activity in crude extract of MCF-7 cells of Nc1ccn([C@H]2C[C@H](O)[C@@H](CO)O2)c(=O)n1 , system deoxyribonucleoside kinases in MCF-7 cell crude extract? 0.01
